Molecular target: Cytochrome P450 1A2 (Homo sapiens)
Sequence (P05177 whole entry): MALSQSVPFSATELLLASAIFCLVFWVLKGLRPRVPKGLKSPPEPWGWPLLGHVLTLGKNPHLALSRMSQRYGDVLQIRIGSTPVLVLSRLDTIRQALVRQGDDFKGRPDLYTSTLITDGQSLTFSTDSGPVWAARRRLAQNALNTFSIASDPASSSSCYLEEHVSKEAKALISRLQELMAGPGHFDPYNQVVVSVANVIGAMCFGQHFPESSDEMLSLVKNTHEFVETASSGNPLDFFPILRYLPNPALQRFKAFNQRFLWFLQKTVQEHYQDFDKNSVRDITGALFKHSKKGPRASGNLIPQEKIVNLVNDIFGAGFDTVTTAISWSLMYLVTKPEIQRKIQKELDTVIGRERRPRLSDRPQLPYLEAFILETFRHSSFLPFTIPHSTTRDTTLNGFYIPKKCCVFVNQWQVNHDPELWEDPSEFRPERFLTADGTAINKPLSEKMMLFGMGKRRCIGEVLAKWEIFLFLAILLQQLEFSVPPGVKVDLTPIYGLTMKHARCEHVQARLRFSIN
Assay: Inhibition of recombinant human CYP1A2 using 3-cyano-7-ethoxycoumarin as substrate preincubated for 10 mins followed by substrate addition and measured after 15 mins
Recorded IC50 for the following compounds

>  <molecule>
CCOC(=O)N1CCC(=CC#Cc2cccc(F)c2)CC1

>  <assayedSystem>
Cytochrome P450 1A2 (Homo sapiens)

>  <IC50>
< 0.7 µM

$$$$
>  <molecule>
Cc1cccc(C#C/C=C2\CCN(C(=O)c3cccc(Cl)c3)C2)n1

>  <assayedSystem>
Cytochrome P450 1A2 (Homo sapiens)

>  <IC50>
5.9 µM

$$$$
>  <molecule>
CCOC(=O)N1CCC(=CC#Cc2cccc(C)n2)CC1

>  <assayedSystem>
Cytochrome P450 1A2 (Homo sapiens)

>  <IC50>
5 µM

$$$$
>  <molecule>
Cc1cccc(C#CC=C2CCN(C(=O)OCCc3ccccc3)CC2)n1

>  <assayedSystem>
Cytochrome P450 1A2 (Homo sapiens)

>  <IC50>
4.7 µM

$$$$
>  <molecule>
CCOC(=O)N1CCC(=CC#Cc2ccccn2)CC1

>  <assayedSystem>
Cytochrome P450 1A2 (Homo sapiens)

>  <IC50>
< 0.7 µM

$$$$
>  <molecule>
COC(=O)N1CCC(=CC#Cc2cccc(C)n2)CC1

>  <assayedSystem>
Cytochrome P450 1A2 (Homo sapiens)

>  <IC50>
4 µM

$$$$

# evaluate next
What measured IC50 goes with COc1cccc(C(=O)N2CCC(=CC#Cc3cccc(C)n3)CC2)c1 ? > 20 µM
